System: 786-0 renal
assay.overview: NCI-60 one-dose screen, 48 h (100 = growth as untreated, 0 = no growth, -100 = all killed)
condition.description: 10 µM
About 83,000 compounds went through this panel and 20% of them were active in at least one assay; those are over-represented in the sample as a whole.
Measured growth values are reported for all entries that follow.

{"columns": ["molecule", "growth (%)"],
 "data": [
  ["COc1ccccc1N1CCN(C(=S)Nc2ccccc2)CC1", 96.3],
  ["COc1ccc(-c2cc3c(nn2)-c2ccccc2C3=O)cc1", 25.8],
  ["O=C(CCl)N1CCN(C/C=C/c2ccccc2)CC1", 101],
  ["NC(=S)N/N=C/c1ccc(N)cc1", 99.9],
  ["Cc1ccc(N)cc1[N+](=O)[O-]", 108],
  ["CC1CCC(C(=O)O)N1 (stereo not drawn)", 100],
  ["C=CCNc1nnc(C)s1", 94.9],
  ["Nc1nc2c(c(-c3nc(N)nc4c3CCc3ccccc3-4)n1)CCc1ccccc1-2", 110],
  ["C#CC(C)(O)c1ccc(Cl)cc1 (stereo not drawn)", 95.5],
  ["O=C(CN1CCNCC1)N1CCOCC1", 101],
  ["COc1cc2nn(-c3ccccc3N)nc2cc1OC", 95.7],
  ["OC1CCCc2ccccc21 (stereo not drawn)", 103],
  ["COc1ccccc1NC(=O)C1=C(C)NC(C)=C(C(=O)Nc2ccccc2OC)C1c1cccc([N+](=O)[O-])c1", 84.6]
]}

----------
Tested on: MOLT-4 leukemia
assay.overview: NCI-60 one-dose screen, 48 h (100 = growth as untreated, 0 = no growth, -100 = all killed)
condition.description: 10 µM
Procedure: Growth inhibition of the MOLT-4 human tumor cell line is measured as a screen for anti-cancer activity. Cells are grown in 96 well plates and exposed to the test compound for 48 hours. Compounds are tested at a single concentration, which is 10^-5 M for most compounds. The reported endpoint is percent growth (GI% or GIPRCNT), where numbers from 0 - 100% represent growth inhibition, and numbers from -100% - 0 represent cell death. For example, a value of 40 represents 60% growth inhibition. […]
Compounds without any hit were thinned out: in the full panel of roughly 83,000, 20% have a hit.
# growth annotations
result.type: growth (%)

{"columns": ["compound", "result.type", "readout.unit", "value.reported"],
 "data": [
  ["COc1cc2c(cc1O)CC[C@@H]1C2CC[C@@]2(C)C1CC[C@@H]2O (stereo partly drawn)", "growth", "%", 31.8],
  ["CCCCNC(=O)C(=O)NCCCC", "growth", "%", 129],
  ["O=[N+]([O-])c1ccc(S(=O)(=O)NN=C2CCCCC2)cc1", "growth", "%", 98.7],
  ["O=P(O)(O)OCC(O)CO (stereo not drawn)", "growth", "%", 103],
  ["CC1=CC(C)(C)NC(=S)N1c1ccc(S(=O)(=O)O)c2cccc(S(=O)(=O)O)c12", "growth", "%", 114],
  ["O=S(=O)(Cc1ccccc1)c1ccccc1", "growth", "%", 108],
  ["CN(C)c1ccc(C(c2ccc(O)cc2)c2ccc(N(C)C)cc2)cc1", "growth", "%", 86.4],
  ["CCOc1ccc(/C=C/C(=O)c2ccccc2)cc1", "growth", "%", 77.6],
  ["O=C(O)COCC(=O)O", "growth", "%", 99.1],
  ["O=[N+]([O-])c1cccc(N=Nc2ccc(O)cc2O)c1", "growth", "%", 50.2],
  ["CCOC(=O)C1OC1c1ccccc1 (stereo not drawn)", "growth", "%", 107],
  ["C#CC(C(C)C)N(CCO)CCCC (stereo not drawn)", "growth", "%", 107],
  ["CN(C)CCN(C)CC(C)(C)C(=O)/C=C/c1ccc(Cl)cc1", "growth", "%", -14.7]
]}

Values compiled from PubChem BioAssay (NCI).
